# Test system: SK-MEL-28 melanoma
# ASSAY_PROCEDURE: NCI tumour cell line growth inhibition, 48 h
TEST_READOUT: GI50

Fill in: GI50 of `NC1CCCCC1N.O=S(=O)([O-])CCCN1CCOCC1.O=S(=O)([O-])CCCN1CCOCC1.[Pt+4]` is ___
5.32 µM

Returns the measured GI50 for the input compound. Input: O=C([O][Hg][CH2]C1COCC([CH2][Hg][O]C(=O)c2ccccc2)O1)c1ccccc1 (centres undefined)
6.86 µM

Fill in: GI50 of `CCN=c1cc2sc3cc(NCC)c(C)cc3nc-2cc1C` is ___
11.7 µM

Endpoint output: GI50 of COc1ccc2c(c1)OC1=C(C(=O)OC1)C2c1cc(OC)c(OC)c(OC)c1 (centres undefined) . Value?
0.667 µM

* * *

Each item that follows carries a reported TGI.
# System: KM12 colon
# ASSAY_PROCEDURE: NCI tumour cell line growth inhibition, 48 h

Use these answered entries as a reference point.
{"columns": ["SMI", "STUDY_SYSTEM", "TGI"],
 "data": [
  ["O=S(=O)(c1ccc(N=C2NN=C(c3c[nH]c4ccccc34)CS2)cc1)N1CCOCC1", "KM12 colon", "> 100 µM"],
  ["Cc1cccc(Cl)c1NC(=O)/C=C/c1ccccc1", "KM12 colon", "> 100 µM"],
  ["OC(C/C(=N\\N1CCCCC1)c1cccs1)(C(F)(F)F)C(F)(F)F", "KM12 colon", "> 10 µM"]
]}

Name the recorded TGI for `C[C@@H]1N=C(c2ccc(Br)cc2)Nc2nc3ccccn3c2C1=O` .
> 100 µM

What TGI value was documented for this molecule, `CCOc1ccc(Nc2nc(-c3ccc4c(c3)NC(=O)CO4)cs2)cc1` ?
> 100 µM

* * *

# Test system: OVCAR-3 ovarian
# ASSAY_PROCEDURE: NCI tumour cell line growth inhibition, 48 h
Consider the following compounds and their measured TGI readings.

Recorded TGI, per entry:
{"columns": ["COMPOUND", "RESULT"],
 "data": [
  ["O=C(c1cccs1)N(C(=S)N1CCN(c2ccccn2)CC1)C1CCCCC1", "> 100 µM"],
  ["COc1cc2c(cc1OCCCCCCN1CCN(c3ncnc4ccccc34)CC1)N=CC1CCCN1C2=O (stereo unspecified)", "0.088 µM"],
  ["O=C(Nc1ccc(F)cc1F)c1cc(Br)ccc1O", "> 100 µM"],
  ["CSC1=N/C(=C\\c2ccco2)C(=O)N1CN1CCCCC1", "> 100 µM"],
  ["Nc1ccc2c3c(n(CCCCl)c(=O)c2c1)-c1cc2c(cc1C3=O)OCO2", "> 100 µM"]
]}

Look up TGI: `c1cc(OCCN2CCCCC2)ccc1CNc1ccc2nc(CCC3CCCCC3)[nH]c2c1`
3.5 µM

What does the record list as TGI for CC(C)(C)[Si](C)(C)OCC1CCC(n2cnc3c(N)ncnc32)O1 (stereo unspecified) ?
> 100 µM

// query TGI value for entry `CC/C(=C(/CC)c1ccc(O)cc1)c1ccc([O-])cc1.CC/C(=C(/CC)c1ccc(O)cc1)c1ccc([O-])cc1.O=C([CH-]C(=O)c1ccccc1)c1ccccc1.O=C([CH-]C(=O)c1ccccc1)c1ccccc1.[Ti+4]`
> 100 µM

Can you share its TGI? I mean this compound: `Cc1cccc2[s+]snc12`
> 89 µM

// lookup TGI for `COC(=O)c1ccccc1/C=C1\Cc2cc(C)cc(C)c2C1=O`
> 100 µM

Quick check: TGI of CCCCCC(CO)C(O)(C(F)(F)F)C(F)(F)F (stereo unspecified) ?
> 10 µM

Can you look up the measured TGI of `O=c1[nH]c(=S)[nH]n1C(=S)n1[nH]c(=S)[nH]c1=O` for me?
> 100 µM

Item CCOC(=O)C1C(c2ccc(OC)cc2)c2c([nH][nH]c2=O)CC1(O)OCC (stereo unspecified) has what recorded TGI?
> 100 µM

May I ask what TGI has been recorded for N#CC(Nc1ccccc1)c1ccc(C(C#N)Nc2ccccc2)cc1 (stereo unspecified) ?
> 100 µM

For the compound shown here, `O=c1[nH]c2c3ccccc3ccc2c2cc3c(cc12)OCO3` , give the reported TGI.
> 100 µM

Data request, read-out TGI, for `COc1cc(NCc2ccc3nc(OC)c(OC)nc3c2)cc(OC)c1OC`
> 100 µM
